Exercise: for every item that follows, state its recorded growth.
- Tested on: NCI-H522 lung
- assay.notes: NCI-60 one-dose screen, 48 h (100 = growth as untreated, 0 = no growth, -100 = all killed)
- run.parameters: 10 µM
Compounds without any hit were thinned out: in the full panel of roughly 83,000, 20% have a hit.
Numbers only, in %.

Here is how some molecules turned out for growth.
smiles.text: C[C@H]1[C@H](OC(=O)CCC(=O)N(CCCc2cn(-c3ccc(C#N)cc3)nn2)CCNc2ccnc3cc(Cl)ccc23)O[C@@H]2OC3(C)CC[C@H]4[C@H](C)CC[C@@H]1[C@@]24OO3
units.symbol: %
growth: 7.88

smiles.text: C[C@H]1[C@@H](Oc2ccc(-c3cn(-c4ccnc5cc(Cl)ccc45)nn3)cc2)O[C@@H]2OC3(C)CC[C@H]4[C@H](C)CC[C@@H]1[C@@]24OO3
units.symbol: %
growth: 2.18

smiles.text: CCC[Se]C(=O)c1ccc(C(=O)[Se]CCC)s1
units.symbol: %
growth: 17.9

INPUT: Please give the measured growth for this molecule: CC(C)N=C([Se])NC(=O)c1cccs1
OUTPUT: 41.1

Cited source for all entries: PubChem BioAssay (NCI)
